B1: ZER1 (parent)
chain: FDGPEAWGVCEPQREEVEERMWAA

- Variants of: B1
- procedure details: protein stability index of a GFP-peptide fusion (GPS, HEK-293T) (PSI 1-6); higher = more stable;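 further: lentivirally expressed fusions sorted by FACS into six bins by GFP to DsRed ratio, PSI derived from sequencing read proportions per bin multiplied by bin number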
- experimental conditions: c terminus: a fixed tail appended
metric name: protein stability index
The response must contain the number and no unit.

Examples with answers:
sequence variant	protein stability index
A6G	3.38
P4G	2.73
A24C	3.55
E16H	2.66
E18A	2.27
E16R	2.16
P4L	2.47
M21G	3.27

Report measured protein stability index; entry is `V17G`
2.36

Return value of protein stability index for input `E19K` , no commentary.
3.35

Could you please provide reported protein stability index for `E15A` ? Thanks!
2.45

Output measured protein stability index for this item: `C10N`
3.26

Give the reported value of protein stability index for this record: `P12M`
3.3

Annotate the variant `R14E` with its measured protein stability index.
3.16

Return protein stability index for the following variant: `E5G`
3.26

Give protein stability index for the following variant: `E11I`
3.01

Identify protein stability index associated with the variant `E16S`
2.25

Report measured protein stability index; entry is `G8V`
1.6

Determine from records and report protein stability index for `R20Q`
2.77

Identify measured protein stability index associated with `E11R`
1.93

Identify measured protein stability index corresponding to `A23H`
2.58
